Provide the reported Percentage phytotoxicity WTS 7 DAA of each item.
- System: wild-type segregant (WTS) oilseed rape
- measurement-notes: Field trial, visible phytotoxicity (Table 2)
- Format: in vivo, Brassica napus
- conditions-used: applied at BBCH 14, 200 L/ha water, g ai/ha: Foramsulfuron 25, TCM 15, Iodosulfuron 7, Mesosulfuron 60, Amidosulfuron 30, Ethoxysulfuron 60, Imazamox 40, Metosulam 30, Bispyribac 50, Nicosulfuron 60, Metsulfuron 8, Propoxycarbazone 70, Pyroxsulam 50, Tribenuron 30, Rimsulfuron 12.5, Flucarbazone 40, Thifensulfuron 7.5
Give bare numbers, in %.

Asked: # get_value(readout= Percentage phytotoxicity WTS 7 DAA, system= wild-type segregant (WTS) oilseed rape) for COC(=O)c1ccc(CNS(C)(=O)=O)cc1S(=O)(=O)NC(=O)Nc1nc(OC)cc(OC)n1 [Mesosulfuron, mesosulfuron-methyl]
Given back: 85

Asked: # get_value(readout= Percentage phytotoxicity WTS 7 DAA, system= wild-type segregant (WTS) oilseed rape) for CCCOc1nn(C(=O)[N-]S(=O)(=O)c2ccccc2C(=O)OC)c(=O)n1C.[Na+] [Propoxycarbazone, propoxycarbazone-sodium]
Given back: 86

Asked: # get_value(readout= Percentage phytotoxicity WTS 7 DAA, system= wild-type segregant (WTS) oilseed rape) for COc1cc(OC)n2nc(NS(=O)(=O)c3c(C(F)(F)F)ccnc3OC)nc2n1 [Pyroxsulam, pyroxsulam]
Given back: 83

Asked: # get_value(readout= Percentage phytotoxicity WTS 7 DAA, system= wild-type segregant (WTS) oilseed rape) for COC(=O)c1csc(C)c1S(=O)(=O)NC(=O)n1nc(OC)n(C)c1=O [TCM, thiencarbazone-methyl]
Given back: 85

Lab note: each compound below needs its Percentage phytotoxicity WTS 7 DAA filled in.
1. COc1nn(C(=O)[N-]S(=O)(=O)c2ccccc2OC(F)(F)F)c(=O)n1C.[Na+] [Flucarbazone, flucarbazone-sodium]
2. COC(=O)c1ccccc1S(=O)(=O)NC(=O)Nc1nc(C)nc(OC)n1 [Metsulfuron, metsulfuron-methyl]

Given back:
[85, 86]

---

- Test system: oilseed rape homozygous for HETO133 and HETO134
- measurement-notes: Field trial, visible phytotoxicity (Table 2)
- Assay type: in vivo, Brassica napus
- conditions-used: applied at BBCH 14, 200 L/ha water, g ai/ha: Foramsulfuron 25, TCM 15, Iodosulfuron 7, Mesosulfuron 60, Amidosulfuron 30, Ethoxysulfuron 60, Imazamox 40, Metosulam 30, Bispyribac 50, Nicosulfuron 60, Metsulfuron 8, Propoxycarbazone 70, Pyroxsulam 50, Tribenuron 30, Rimsulfuron 12.5, Flucarbazone 40, Thifensulfuron 7.5
Provide the reported Percentage phytotoxicity HETO133-HETO134 7 DAA of each item.
In your response, the unit should come after the numeric value.

Answered cases to consult:
Asked: Record request: Percentage phytotoxicity HETO133-HETO134 7 DAA value, item COC(=O)c1csc(C)c1S(=O)(=O)NC(=O)n1nc(OC)n(C)c1=O
Given back: 0%

Asked: Record request: Percentage phytotoxicity HETO133-HETO134 7 DAA value, item COc1cc(OC)n2nc(NS(=O)(=O)c3c(C(F)(F)F)ccnc3OC)nc2n1
Given back: 0%

Asked: Record request: Percentage phytotoxicity HETO133-HETO134 7 DAA value, item CCCOc1nn(C(=O)[N-]S(=O)(=O)c2ccccc2C(=O)OC)c(=O)n1C.[Na+] [Propoxycarbazone, propoxycarbazone-sodium]
Given back: 57%

Asked: Record request: Percentage phytotoxicity HETO133-HETO134 7 DAA value, item COc1nn(C(=O)[N-]S(=O)(=O)c2ccccc2OC(F)(F)F)c(=O)n1C.[Na+] [Flucarbazone, flucarbazone-sodium]
Given back: 0%

Asked: Record request: Percentage phytotoxicity HETO133-HETO134 7 DAA value, item COC(=O)c1ccccc1S(=O)(=O)NC(=O)Nc1nc(C)nc(OC)n1
Given back: 50%

Lab note: next compound to report on.
Asked: Record request: Percentage phytotoxicity HETO133-HETO134 7 DAA value, item COC(=O)c1ccc(CNS(C)(=O)=O)cc1S(=O)(=O)NC(=O)Nc1nc(OC)cc(OC)n1
Given back: 33%
